Below, each entry is listed alongside its reported combination Emax.
- Tested on: SW1463 (Colorectal Carcinoma)
- RUN_DESCRIPTION: combination Emax (second highest fraction inhibited in the dose matrix, 72 h); higher = more inhibition; extreme values may be limits of the assay
The answer should be written as a number, with no unit following it.

COc1cccc(OCCCN)c1-c1cc(Nc2cnc(C#N)cn2)n[nH]1 [Prexasertib] + Cc1cc2ncnn2cc1Nc1ncc2c(n1)n(C1CCOCC1)c(=O)n2C [AZD7648] (first compound max 1 µM, 7x7, partner max 10 µM)
0.704
N#Cc1cnc(Nc2cc(NC[C@H]3CNCCO3)c(C(F)(F)F)cn2)cn1 [SRA737] + CCc1c2c(nc3ccc(O)cc13)-c1cc3c(c(=O)n1C2)COC(=O)[C@]3(O)CC [SN-38] (first compound max 10 µM, 7x7, partner max 0.3 µM)
0.758
N#Cc1cnc(Nc2cc(NC[C@H]3CNCCO3)c(C(F)(F)F)cn2)cn1 [SRA737] + Nc1ccn([C@@H]2O[C@H](CO)[C@@H](O)C2(F)F)c(=O)n1 [Gemcitabine] (first compound max 10 µM, 7x7, partner max 0.3 µM)
0.848

Attention now shifts to the item below.
Asked: Consider the compound CC(=O)c1c(C)c2cnc(Nc3ccc(N4CCNCC4)cn3)nc2n(C2CCCC2)c1=O [Palbociclib] + Cn1cnc2c(F)c(Nc3ccc(Br)cc3Cl)c(C(=O)NOCCO)cc21 [Selumetinib] (first compound max 10 µM, 7x7, partner max 10 µM) and give its recorded combination Emax.
Given back: 0.646

meta.source: the supplement of paper PMC11061612
